Exercise: state measured inhibition at 1 µM for each of the compounds provided.
Target: UniProtKB O15111
Sequence (O15111 1-745): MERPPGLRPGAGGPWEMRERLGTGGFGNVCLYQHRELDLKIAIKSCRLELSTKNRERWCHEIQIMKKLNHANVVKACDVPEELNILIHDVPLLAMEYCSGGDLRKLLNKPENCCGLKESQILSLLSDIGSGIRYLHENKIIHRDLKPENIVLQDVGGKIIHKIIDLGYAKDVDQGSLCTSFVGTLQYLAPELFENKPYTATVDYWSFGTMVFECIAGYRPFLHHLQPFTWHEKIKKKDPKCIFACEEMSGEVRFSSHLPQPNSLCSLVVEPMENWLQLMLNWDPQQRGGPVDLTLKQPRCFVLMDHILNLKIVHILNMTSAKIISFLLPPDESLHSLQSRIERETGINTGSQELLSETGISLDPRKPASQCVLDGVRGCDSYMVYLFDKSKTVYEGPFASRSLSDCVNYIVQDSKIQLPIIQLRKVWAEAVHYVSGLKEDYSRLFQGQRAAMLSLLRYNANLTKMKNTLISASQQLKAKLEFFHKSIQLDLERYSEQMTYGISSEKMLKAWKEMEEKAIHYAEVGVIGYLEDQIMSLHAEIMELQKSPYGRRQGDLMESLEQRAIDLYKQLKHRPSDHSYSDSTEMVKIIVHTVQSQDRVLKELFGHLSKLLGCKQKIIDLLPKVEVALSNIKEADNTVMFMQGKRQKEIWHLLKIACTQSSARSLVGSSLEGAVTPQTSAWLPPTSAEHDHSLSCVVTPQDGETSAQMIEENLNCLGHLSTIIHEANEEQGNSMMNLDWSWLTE
Assay: Kinase panel profiling at 1 µmol/L (MSA or IMAP), percentage inhibition
Format: biochemical
Conditions: kinase IKKα; 1 µmol/L single concentration; read-out: %-inhibition at 1 µmol/L, IKKα
Numbers only, in %.

The following compounds have reported results that may help.
CCn1c(=O)c(-c2cc(NC(=O)Nc3ccccc3)c(F)cc2Br)cc2cnc(NC)cc21 [ripretinib] = 1.08
C[C@H](Nc1ncnc2nc[nH]c12)c1cc2cccc(Cl)c2c(=O)n1-c1ccccc1 [duvelisib] = 8

// next item, inhibition at 1 µM requested
Prompt: Could you tell me which inhibition at 1 µM is on file for CCc1nc(C(N)=O)c(Nc2ccc(N3CCC(N4CCN(C)CC4)CC3)c(OC)c2)nc1NC1CCOCC1 [gilteritinib] ?
Response: 2.16

Where do the numbers come from? From paper PMC9516332.
